- Test system: normal human lung fibroblasts
- protocol-details: Ribosomal profiling: translational efficiency in TGFβ-treated fibroblasts
- Assay type: cell-based
- test-settings: ENSG00000134897; TGFβ-treated fibroblasts
endpoint-label: renormalizing the translational profile of BIVM

>>> data_value("CC(C=CC(=O)NO)=CC(C)C(=O)c1ccc(N(C)C)cc1 (centres unmarked)")
"− (− = <0.9)"
>>> data_value("Cc1cc(C2CCCCC2)n(O)c(=O)c1.NCCO")
"+ (+ = 0.9 to 1.5)"
>>> data_value("CC(C)n1nc(-c2cc3cc(O)ccc3[nH]2)c2c(N)ncnc21")
"+ (+ = 0.9 to 1.5)"
>>> data_value("Cc1ccc(=O)n(-c2ccccc2)c1")
"− (− = <0.9)"

Measured renormalizing the translational profile of BIVM, COC(=O)[C@H]1[C@@H](O)[C@@]2(O)c3c(OC)cc(O[C@@H]4O[C@@H]([C@H](O)CO)CO[C@H]4OC)cc3O[C@@]2(c2ccc(OC)cc2)[C@@H]1c1ccccc1 : − (− = <0.9)

###

- Tested on: normal human lung fibroblasts
- protocol-details: Ribosomal profiling: translational efficiency in TGFβ-treated fibroblasts
- Type: cell-based
- test-settings: ENSG00000169239; TGFβ-treated fibroblasts
endpoint-label: renormalizing the translational profile of CA5B

>>> data_value("CC(C)n1nc(-c2cc3cc(O)ccc3[nH]2)c2c(N)ncnc21")
"+ (+ = 0.9 to 1.5)"
>>> data_value("CC(C=CC(=O)NO)=CC(C)C(=O)c1ccc(N(C)C)cc1 (centres unmarked)")
"+ (+ = 0.9 to 1.5)"
>>> data_value("COC(=O)[C@H]1[C@@H](O)[C@@]2(O)c3c(OC)cc(O[C@@H]4O[C@@H]([C@H](O)CO)CO[C@H]4OC)cc3O[C@@]2(c2ccc(OC)cc2)[C@@H]1c1ccccc1")
"+ (+ = 0.9 to 1.5)"

###

- Tested on: normal human lung fibroblasts
- protocol-details: Ribosomal profiling: translational efficiency in TGFβ-treated fibroblasts
- Assay type: cell-based
- test-settings: ENSG00000178401; TGFβ-treated fibroblasts
endpoint-label: renormalizing the translational profile of DNAJC22

The following molecules have reported results that may help.
>>> data_value("Cc1ccc(=O)n(-c2ccccc2)c1")
"+ (+ = 0.9 to 1.5)"
>>> data_value("CC(C=CC(=O)NO)=CC(C)C(=O)c1ccc(N(C)C)cc1 (centres unmarked)")
"− (− = <0.9)"
>>> data_value("Cc1cc(C2CCCCC2)n(O)c(=O)c1.NCCO")
"− (− = <0.9)"
>>> data_value("COC(=O)[C@H]1[C@@H](O)[C@@]2(O)c3c(OC)cc(O[C@@H]4O[C@@H]([C@H](O)CO)CO[C@H]4OC)cc3O[C@@]2(c2ccc(OC)cc2)[C@@H]1c1ccccc1")
"− (− = <0.9)"

Switching to the query record.
Measured renormalizing the translational profile of DNAJC22, CC(C)n1nc(-c2cc3cc(O)ccc3[nH]2)c2c(N)ncnc21 : + (+ = 0.9 to 1.5)

###

- Test system: normal human lung fibroblasts
- protocol-details: Ribosomal profiling: translational efficiency in TGFβ-treated fibroblasts
- Format: cell-based
- test-settings: ENSG00000105514; TGFβ-treated fibroblasts
endpoint-label: renormalizing the translational profile of RAB3D

>>> data_value("Cc1cc(C2CCCCC2)n(O)c(=O)c1.NCCO [CPX, ciclopirox oloamine]")
"− (− = <0.9)"
>>> data_value("COC(=O)[C@H]1[C@@H](O)[C@@]2(O)c3c(OC)cc(O[C@@H]4O[C@@H]([C@H](O)CO)CO[C@H]4OC)cc3O[C@@]2(c2ccc(OC)cc2)[C@@H]1c1ccccc1 [Silvestrol]")
"− (− = <0.9)"
>>> data_value("Cc1ccc(=O)n(-c2ccccc2)c1 [pirfenidone, 5-methyl-1-phenylpyridin-2-one]")
"+ (+ = 0.9 to 1.5)"
>>> data_value("CC(C)n1nc(-c2cc3cc(O)ccc3[nH]2)c2c(N)ncnc21 [PP242]")
"+ (+ = 0.9 to 1.5)"
